All values here come from patent US20220119518A1.

- Measured Target: T1, Antigen CD66c (CEACAM6; Sino Biological, Inc.) (UniProt P40199 35-320)
- T1 construct: Bought antigen, coated on the ELISA plate; construct not described; also called CECACAM6 (CD66c) antigen; CD66c antigen
- T1 sequence (looked up): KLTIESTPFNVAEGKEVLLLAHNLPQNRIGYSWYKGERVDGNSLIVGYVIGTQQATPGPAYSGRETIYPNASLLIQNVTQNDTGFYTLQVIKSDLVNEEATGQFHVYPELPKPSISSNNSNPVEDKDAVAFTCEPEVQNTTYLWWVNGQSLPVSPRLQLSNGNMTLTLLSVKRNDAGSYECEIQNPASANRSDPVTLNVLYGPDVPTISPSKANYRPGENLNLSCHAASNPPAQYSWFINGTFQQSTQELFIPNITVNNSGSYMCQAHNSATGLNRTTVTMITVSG
- Protocol: ELISA, CEACAM6 coated 100 ng/well, antibody at 1111.11 ng/ml
Label class 1 when OD 450 nm is at or above 3 OD 450 nm; anything below gets class 0.

These recorded examples may help you get a feel for the data.
- Binder: "recombinant humanized anti-CD66c antibody Protein ID 3019 (Vk7 + VH10) (antibody, human IgG1, V domains shown, also called hu 3019; #51) VH: QVQLVQSGAEVKKPGASVKVSCKASGYSFTDYTMNWVKQAPGQNLEWIGLINPFHGGTVSNQRFKVKATMTVDVSTNTAYMELSRLRSDDTAVYYCVRGDPVRHYYALAYWGQGTLVTVSS VL: DIQMTQSPSTLSASVGDRVTITCGASENVYGTLNWYQRKPGKAPKLLIYGATNLADGVPSRFSGSGSGTEYTLTISSLQPDDFATYYCQNVLSAPYTFGGGTKLEIK"
  Class Name: "class 1"
- Binder: "recombinant humanized anti-CD66c antibody Protein ID 3043 (Vk8 + VH6) (antibody, V domains shown, also called hu 3043; #71) VH: QVQLVQSGAEVKKPGASMKISCKASGYSFTDYTMNWVKQAPGQNLEWIGLINPFHGGTVSNQRFKVKATLTVDVSTNTAYMELSRLRSDDTAVYYCVRGDPVRHYYALAYWGQGTLVTVSS VL: DIQMTQSPSTLSASVGDRVTITCRASENVYGTLNWYQRKPGKAPKLLIYGATNLADGMPSRFSGSGSGTEYTLTISSLQPDDFATYYCQNVLSAPYTFGGGTKLEIK"
  Class Name: "class 0"
- Binder: "recombinant humanized anti-CD66c antibody Protein ID 3007 (Vk7 + VH6) (antibody, human IgG1, V domains shown, also called hu 3007; #43) VH: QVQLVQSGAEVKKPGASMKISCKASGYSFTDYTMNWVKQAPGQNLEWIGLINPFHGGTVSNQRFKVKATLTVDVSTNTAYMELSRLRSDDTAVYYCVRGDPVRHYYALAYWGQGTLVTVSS VL: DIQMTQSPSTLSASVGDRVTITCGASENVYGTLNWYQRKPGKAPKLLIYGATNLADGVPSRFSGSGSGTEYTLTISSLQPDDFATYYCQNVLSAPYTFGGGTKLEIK"
  Class Name: "class 1"

Please indicate if the recorded OD 450 nm for anti-CD66c chimeric antibody 8F5 (antibody, human IgG1, V domains shown, also called chimeric 8F5; chi 8F5) VH: EVQLQQSGPELVKPGASMKISCKASGYSFTDYTMNWVKQSHGKNLEWIGLINPFHGGTVSNQRFKVKATLTVDVSSNTAYMELLSLTSDDSAVYYCVRGDPVRHYYALAYWGQGTSVTVSS VL: DIQMTQSPASLSASVGETVTITCGASENVYGTLNWYQRKQGKSPQLLIYGATNLADGMSSRFSGSGSGRQYSLKISSLHPDDVATYYCQNVLSAPYTFGGGTKLEII meets or exceeds 3 OD 450 nm. class 1

Would you say recombinant humanized anti-CD66c antibody Protein ID 2938 (Vk5 + VH7) (antibody, human IgG1, V domains shown, also called hu 2938) VH: QVQLVQSGAEVKKPGASMKISCKASGYSFTDYTMNWVRQAPGQGLEWIGLINPFHGGTVSNQRFKVKATLTVDVSTNTAYMELSRLRSDDTAVYYCVRGDPVRHYYALAYWGQGTLVTVSS VL: DIQMTQSPSTLSASVGDRVTITCGASENVYGTLAWYQRKPGKAPKLLIYGATNLADGVPSRFSGSGSGREYTLTISSLQPDDFATYYCQNVLSAPYTFGGGTKLEIK shows OD 450 nm at minimum 3 OD 450 nm? class 1

Reported OD 450 nm reaches at least 3 OD 450 nm for recombinant humanized anti-CD66c antibody Protein ID 3058 (Vk8 + VH11) (antibody, human IgG1, V domains shown, also called hu 3058; #86) VH: QVQLVQSGAEVKKPGASVKISCKASGYSFTDYTMHWVKQAPGQNLEWIGLINPFGGSTSYAQKFKGRVTMTRDTSTNTAYMELSRLRSDDTAVYYCVRGDPVRHYYALAYWGQGTLVTVSS VL: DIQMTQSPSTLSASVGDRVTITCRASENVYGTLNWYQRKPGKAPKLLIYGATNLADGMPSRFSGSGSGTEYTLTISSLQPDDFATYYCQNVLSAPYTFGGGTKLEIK ? class 1
